Some compounds, each annotated with its measured Extracted samples at 8 °C for 18 h, RE.
# experimental details: Stability tests of analytes in rat plasma QC samples
# Type: in vitro ADME
# measurement context: rat plasma, nominal conc. 100 nM
# Description: […] The dilution integrity was investigated by analyzing six replicate samples with each analyte, and each analyte were diluted 10-fold with blank rat matrix. Furthermore, the diluted samples were analyzed using freshly prepared calibration curve to calculate RE and RSD, which should be no more than ± 15% as criterion.

compound	reading unit	Extracted samples at 8 °C for 18 h, RE
CC(C)=CCC[C@](C)(O)[C@H]1CC[C@]2(C)[C@@H]1[C@H](O)C[C@@H]1[C@@]3(C)CC[C@H](O)C(C)(C)[C@@H]3[C@@H](O[C@@H]3O[C@H](CO)[C@@H](O)[C@H](O)[C@H]3O[C@@H]3O[C@H](CO)[C@@H](O)[C@H](O)[C@H]3O)C[C@]12C [Compound C7, Ginsenoside Rf]	%	-8.56
CC(C)=CCC[C@](C)(O)[C@H]1CC[C@]2(C)[C@@H]1[C@H](O)C[C@@H]1[C@@]3(C)CC[C@H](O)C(C)(C)[C@@H]3[C@@H](O[C@@H]3O[C@H](CO)[C@@H](O)[C@H](O)[C@H]3O[C@@H]3O[C@@H](C)[C@H](O)[C@@H](O)[C@H]3O)C[C@]12C [Compound C5, Ginsenoside Rg2]	%	-8.46

* * *

# experimental details: Stability tests of analytes in rat plasma QC samples
# Type: in vitro ADME
# measurement context: rat plasma, nominal conc. 400 nM
readout: Three freeze-thaw cycles (-80 °C ↔ 23 °C), Mean±SD

molecule	measured value
CC(C)=CCC[C@](C)(O)[C@H]1CC[C@]2(C)[C@@H]1[C@H](O)C[C@@H]1[C@@]3(C)CC[C@H](O)C(C)(C)[C@@H]3[C@@H](O[C@@H]3O[C@H](CO)[C@@H](O)[C@H](O)[C@H]3O[C@@H]3O[C@@H](C)[C@H](O)[C@@H](O)[C@H]3O)C[C@]12C [Compound C5, Ginsenoside Rg2]	374.05 ± 38.03 nM

* * *

# experimental details: Stability tests of analytes in rat plasma QC samples
# Format: in vitro ADME
# measurement context: rat plasma, nominal conc. 20 nM
readout: Three freeze-thaw cycles (-80 °C ↔ 23 °C), RE (%)

molecule	reading unit	measured value
CC(C)=CCC[C@](C)(O)[C@H]1CC[C@]2(C)[C@@H]1[C@H](O)C[C@@H]1[C@@]3(C)CC[C@H](O)C(C)(C)[C@@H]3[C@@H](O[C@@H]3O[C@H](CO)[C@@H](O)[C@H](O)[C@H]3O[C@@H]3O[C@@H](C)[C@H](O)[C@@H](O)[C@H]3O)C[C@]12C [Compound C5, Ginsenoside Rg2]	%	11.13
O=C1CCC[C@@H]2[C@H]3CCCN4CCC[C@@H](CN12)[C@@H]34	%	-9.75
CC(C)=CCC[C@](C)(O[C@@H]1O[C@H](CO)[C@@H](O)[C@H](O)[C@H]1O)[C@H]1CC[C@]2(C)[C@@H]1[C@H](O)C[C@@H]1[C@@]3(C)CC[C@H](O[C@@H]4O[C@H](CO)[C@@H](O)[C@H](O)[C@H]4O[C@@H]4O[C@H](CO)[C@@H](O)[C@H](O)[C@H]4O)C(C)(C)[C@@H]3CC[C@]12C [Compound D2, Ginsenoside Rd]	%	11.74
O=C1C=CC[C@@H]2[C@H]3CCC[N+]4([O-])CCC[C@@H](CN12)[C@@H]34 (stereo partly shown)	%	13.81

* * *

# experimental details: Plasma pharmacokinetics in rats after a 30-min intravenous infusion of Kang-Ai injection
# Assay type: in vivo, Sprague–Dawley rats
# measurement context: male, Sprague-Dawley, in vivo; rat plasma; 30-min iv infusion of Kang-Ai injection 6 mL/kg; read-out: t1/2 (converted)
# half-life per entry

molecule	reading unit	half-life
O=C1C=CC[C@@H]2[C@H]3CCC[N+]4([O-])CCC[C@@H](CN12)[C@@H]34 (some centres unmarked)	h	1.78
CC(C)=CCC[C@](C)(O)[C@H]1CC[C@]2(C)[C@@H]1[C@H](O)C[C@@H]1[C@@]3(C)CC[C@H](O)C(C)(C)[C@@H]3[C@@H](O[C@@H]3O[C@H](CO)[C@@H](O)[C@H](O)[C@H]3O)C[C@]12C [Compound C1, Ginsenoside Rh1]	h	0.44

* * *

# experimental details: Biliary (hepatobiliary) excretion in rats after a 30-min infusion of Kang-Ai injection
# Type: in vivo, Sprague–Dawley rats
# measurement context: rat bile 0–12 h; Kang-Ai injection 6 mL/kg iv
readout: fe-B,0–12h (fraction of dose excreted into bile)

item smiles	measured value
O=c1cccc2n1C[C@H]1C[C@@H]2CN2CC[C@H](O)C[C@H]12	10.30 ± 1.11%

* * *

# experimental details: Stability tests of analytes in rat plasma QC samples
# Type: in vitro ADME
# measurement context: rat plasma, nominal conc. 20 nM
# Procedure: […] The dilution integrity was investigated by analyzing six replicate samples with each analyte, and each analyte were diluted 10-fold with blank rat matrix. Furthermore, the diluted samples were analyzed using freshly prepared calibration curve to calculate RE and RSD, which should be no more than ± 15% as criterion.
# note: exactly 10% is not below, so it is n; use y for At -80 °C for 48 h, RE strictly under it

molecule	assigned label
O=C1CCC[C@@H]2[C@H]3CCCN4CCC[C@@H](CN12)[C@@H]34	n
CC(C)=CCC[C@](C)(O[C@@H]1O[C@H](CO[C@@H]2O[C@@H](CO)[C@H](O)[C@H]2O)[C@@H](O)[C@H](O)[C@H]1O)[C@H]1CC[C@]2(C)[C@@H]1[C@H](O)C[C@@H]1[C@@]3(C)CC[C@H](O[C@@H]4O[C@H](CO)[C@@H](O)[C@H](O)[C@H]4O[C@@H]4O[C@H](CO)[C@@H](O)[C@H](O)[C@H]4O)C(C)(C)[C@@H]3CC[C@]12C [Compound D3, Ginsenoside Rc]	n
CC(C)=CCC[C@](C)(O)[C@H]1CC[C@]2(C)[C@@H]1[C@H](O)C[C@@H]1[C@@]3(C)CC[C@H](O)C(C)(C)[C@@H]3[C@@H](O[C@@H]3O[C@H](CO)[C@@H](O)[C@H](O)[C@H]3O[C@@H]3O[C@H](CO)[C@@H](O)[C@H](O)[C@H]3O)C[C@]12C [Compound C7, Ginsenoside Rf]	y
CC(C)=CCC[C@](C)(O)[C@H]1CC[C@]2(C)[C@@H]1[C@H](O)C[C@@H]1[C@@]3(C)CC[C@H](O)C(C)(C)[C@@H]3[C@@H](O[C@@H]3O[C@H](CO)[C@@H](O)[C@H](O)[C@H]3O)C[C@]12C [Compound C1, Ginsenoside Rh1]	n
CC(C)=CCC[C@](C)(O[C@@H]1O[C@H](CO)[C@@H](O)[C@H](O)[C@H]1O)[C@H]1CC[C@]2(C)[C@@H]1[C@H](O)C[C@@H]1[C@@]3(C)CC[C@H](O)C(C)(C)[C@@H]3[C@@H](O[C@@H]3O[C@H](CO)[C@@H](O)[C@H](O)[C@H]3O[C@@H]3OC[C@@H](O)[C@H](O)[C@H]3O)C[C@]12C [Compound C8, Notoginsenoside R1]	y
CC(C)=CCC[C@](C)(O[C@@H]1O[C@H](CO[C@@H]2OC[C@H](O)[C@H](O)[C@H]2O)[C@@H](O)[C@H](O)[C@H]1O)[C@H]1CC[C@]2(C)[C@@H]1[C@H](O)C[C@@H]1[C@@]3(C)CC[C@H](O[C@@H]4O[C@H](CO)[C@@H](O)[C@H](O)[C@H]4O[C@@H]4O[C@H](CO)[C@@H](O)[C@H](O)[C@H]4O)C(C)(C)[C@@H]3CC[C@]12C [Compound D4, Ginsenoside Rb2]	y
CC(C)=CCC[C@](C)(O[C@@H]1O[C@H](CO[C@@H]2O[C@H](CO)[C@@H](O)[C@H](O)[C@H]2O)[C@@H](O)[C@H](O)[C@H]1O)[C@H]1CC[C@]2(C)[C@@H]1[C@H](O)C[C@@H]1[C@@]3(C)CC[C@H](O[C@@H]4O[C@H](CO)[C@@H](O)[C@H](O)[C@H]4O[C@@H]4O[C@H](CO)[C@@H](O)[C@H](O)[C@H]4O)C(C)(C)[C@@H]3CC[C@]12C [Compound D5, Ginsenoside Rb1]	y
CC(C)=CCC[C@](C)(O)[C@H]1CC[C@]2(C)[C@@H]1[C@H](O)C[C@@H]1[C@@]3(C)CC[C@H](O)C(C)(C)[C@@H]3[C@@H](O[C@@H]3O[C@H](CO)[C@@H](O)[C@H](O)[C@H]3O[C@@H]3O[C@@H](C)[C@H](O)[C@@H](O)[C@H]3O)C[C@]12C [Compound C5, Ginsenoside Rg2]	y
CC(C)(O)[C@@H]1CC[C@](C)([C@H]2[C@@H](O)C[C@@]3(C)[C@@H]4C[C@H](O)[C@H]5C(C)(C)[C@@H](O[C@@H]6OC[C@@H](O)[C@H](O)[C@H]6O[C@@H]6O[C@H](CO)[C@@H](O)[C@H](O)[C@H]6O)CC[C@@]56C[C@@]46CC[C@]23C)O1 [Compound B3, Astragaloside III]	y
O=C1C=CC[C@@H]2[C@H]3CCC[N+]4([O-])CCC[C@@H](CN12)[C@@H]34 (some centres unmarked)	n
CC(C)=CCC[C@](C)(O[C@@H]1O[C@H](CO)[C@@H](O)[C@H](O)[C@H]1O)[C@H]1CC[C@]2(C)[C@@H]1[C@H](O)C[C@@H]1[C@@]3(C)CC[C@H](O[C@@H]4O[C@H](CO)[C@@H](O)[C@H](O)[C@H]4O[C@@H]4O[C@H](CO)[C@@H](O)[C@H](O)[C@H]4O)C(C)(C)[C@@H]3CC[C@]12C [Compound D2, Ginsenoside Rd]	n
